Below: a set of entries, each annotated with reported koff.
biological target: T1, eukaryotically produced human IL-6 (human, UniProt P05231 30-212); assay: SPR; purified Fab; IL-6 coated on CM5 chip;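 also: dissociation rate taken from the wash phase, association rate fitted over the injection phase with analyte concentration and dissociation rate as inputs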
T1 construct: also called eukIL-6; Euk IL-6
Give just the number in s⁻¹; leave the unit off.

Query: Could you share which koff value was measured for Fab 24C9 (Fab, V domains shown, Fab) VH: QVQLVESGGGLVQPGGSLRLSCAASGFTFSSYRMYWVRQPPGKGLEWVSAISAGGGSTYYGDSVKGRFTISRDNAKNTVYLQMNSLKPEDTALYYCKKSTWADGESDYWGQGTQVTVSS VL: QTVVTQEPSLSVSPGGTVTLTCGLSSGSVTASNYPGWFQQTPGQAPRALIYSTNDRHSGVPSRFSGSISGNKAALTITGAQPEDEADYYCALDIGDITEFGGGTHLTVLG ?
Reply: 0.0003

More entries:
Query: For the binder Fab 18C7 (Fab, V domains shown, Fab; also called 18C7 (090-423)) VH: EVQLVESGPGLVKPSQTLSLTCTVSGGSITASFDAWSWIRQPPGKGLEWMGVIAYDGSTYYSPSLKSRTSISRDTSKNQFSLQLSSVTPEDTAVYYCARKSSWLIGYGMDYWGKGTLVTVSS VL: QAGLTQPSALSVTLGQTAKITCQGGSLGSSYAHWYQQKPGQAPVLVIYDDDSRPSGIPERFSGSSSGGRATLTISGAQAEDEGDYYCQSADSSGNAAVFGGGTHLTVLG , what koff is on record?
Reply: 0.001

Query: For Fab 20A4 (Fab, V domains shown, Fab) VH: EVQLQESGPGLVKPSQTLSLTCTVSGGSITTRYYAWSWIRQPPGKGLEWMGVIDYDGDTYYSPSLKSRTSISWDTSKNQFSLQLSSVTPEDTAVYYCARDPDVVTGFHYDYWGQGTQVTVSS VL: LNFMLTQPPSVSGTLGKTVTISCAGTSSDIGGYNYVSWYQQLPGTAPKLLIHRVSTRASGIPDRFSGSKSGNTASLTISGLRSEDEANYYCASYRNFNNAVFGGGTQLTVLG , what is its reported koff?
Reply: 0.0003

Query: Give its koff value. Item: Fab 18C9 (Fab, V domains shown, Fab) VH: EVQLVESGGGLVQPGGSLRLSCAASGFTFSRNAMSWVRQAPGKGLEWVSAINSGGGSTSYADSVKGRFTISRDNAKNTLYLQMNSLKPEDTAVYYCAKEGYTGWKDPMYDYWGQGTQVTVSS VL: LNFMLTQPSALSVTLGQTAKITCQGGSLGSRYAHWYQQKPGQAPVLVIYDDDSRPSGIPERFSGSSSGGRATLTISGAQAEDDGDYYCQSADSSGNASVFGGGTHLTVLG
Reply: 0.00021
